tested.system: DPAP3 (Plasmodium falciparum, UniProt Q8I1Y2)
Sequence (Q8I1Y2 entry or part of it): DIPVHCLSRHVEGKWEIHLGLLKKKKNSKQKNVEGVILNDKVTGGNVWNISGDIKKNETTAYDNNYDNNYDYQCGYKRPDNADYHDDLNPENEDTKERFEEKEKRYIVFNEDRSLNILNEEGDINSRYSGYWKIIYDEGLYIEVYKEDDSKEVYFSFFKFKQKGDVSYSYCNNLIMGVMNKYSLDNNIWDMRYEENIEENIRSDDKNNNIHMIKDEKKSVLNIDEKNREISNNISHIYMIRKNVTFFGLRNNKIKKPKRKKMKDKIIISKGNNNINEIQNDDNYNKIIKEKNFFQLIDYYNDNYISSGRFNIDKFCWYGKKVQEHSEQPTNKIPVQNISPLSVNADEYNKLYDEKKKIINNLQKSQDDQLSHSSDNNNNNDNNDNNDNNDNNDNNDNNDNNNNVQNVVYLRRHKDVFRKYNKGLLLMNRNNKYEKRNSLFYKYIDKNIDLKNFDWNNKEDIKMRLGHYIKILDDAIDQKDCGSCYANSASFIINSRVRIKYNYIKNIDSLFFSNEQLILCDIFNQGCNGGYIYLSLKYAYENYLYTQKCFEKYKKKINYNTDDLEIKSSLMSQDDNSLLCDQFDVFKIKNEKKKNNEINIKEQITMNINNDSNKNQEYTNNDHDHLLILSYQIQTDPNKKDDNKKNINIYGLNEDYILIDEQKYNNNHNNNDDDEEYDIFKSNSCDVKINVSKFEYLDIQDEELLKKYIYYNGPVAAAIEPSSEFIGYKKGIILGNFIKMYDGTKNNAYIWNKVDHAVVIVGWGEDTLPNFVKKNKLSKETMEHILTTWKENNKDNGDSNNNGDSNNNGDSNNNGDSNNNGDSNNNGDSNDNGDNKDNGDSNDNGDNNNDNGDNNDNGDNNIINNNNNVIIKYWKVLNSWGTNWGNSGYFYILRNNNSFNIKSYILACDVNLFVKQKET
experiment: biochemical
Design: gene PF3D7_0404700; recombinant, baculovirus/SF9 insect cells, purified from culture supernatant by ion exchange, Ni-NTA and size exclusion; active-site titrated; continuous fluorogenic assay, time-dependent inactivation of 0.2 nM recombinant DPAP3, Met-nLeu(o-Bzl)-ACC 2.2 uM
test.context: read-out: DPAP3 / k inact/K i ·10^−3 (M ^−1·s^−1)
readout.name: kinact/KI (M⁻¹ s⁻¹)
Report only the number, with the unit M⁻¹ s⁻¹ understood.

Would you please look over these solved cases?
• N[C@H](Cc1c[nH]c2ccccc12)C(=O)N[C@H](/C=C/S(=O)(=O)c1ccccc1)CCCCOCc1ccccc1 [D‐Trp‐nLeu(o‐Bzl)‐VS] = 470
• N[C@H](Cc1c[nH]c2ccccc12)C(=O)N[C@H](/C=C/S(=O)(=O)c1ccccc1)CCc1ccccc1 [D‐Trp‐hPhe‐VS] = 320
• N[C@@H](Cc1c[nH]c2ccccc12)C(=O)N[C@H](/C=C/S(=O)(=O)c1ccccc1)CCc1ccccc1 [L‐Trp‐hPhe‐VS] = 52000
• N[C@@H](Cc1ccc(O)c([N+](=O)[O-])c1)C(=O)N[C@H](C=CS(=O)(=O)c1ccccc1)CCc1ccccc1 [Tyr(NO2)‐hPhe‐VS] = 950000
• O=C(N[C@H](/C=C/S(=O)(=O)c1ccccc1)CCc1ccccc1)[C@@H]1CCCCN1 [hPro‐hPhe‐VS] = 69000

Qu. Report kinact/KI for N[C@@H](Cc1ccc2ccccc2c1)C(=O)N[C@H](/C=C/S(=O)(=O)c1ccccc1)CCCCOCc1ccccc1 [2Nal‐nLeu(o‐Bzl)‐VS] please.
Ans. 2200

Qu. Item: O=C(N[C@H](C=CS(=O)(=O)c1ccccc1)CCc1ccccc1)[C@@H]1CCCN1 [Pro‐hPhe‐VS]
Ans. 4100

----------
tested.system: DPAP1 (Plasmodium falciparum, UniProt Q8IIJ9)
Sequence (Q8IIJ9 28-209): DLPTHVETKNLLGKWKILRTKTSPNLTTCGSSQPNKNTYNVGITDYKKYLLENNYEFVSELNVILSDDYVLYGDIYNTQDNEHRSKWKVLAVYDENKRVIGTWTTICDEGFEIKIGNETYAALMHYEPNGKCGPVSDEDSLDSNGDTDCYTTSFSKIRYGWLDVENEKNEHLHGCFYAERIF
Sequence (Q8IIJ9 370-599): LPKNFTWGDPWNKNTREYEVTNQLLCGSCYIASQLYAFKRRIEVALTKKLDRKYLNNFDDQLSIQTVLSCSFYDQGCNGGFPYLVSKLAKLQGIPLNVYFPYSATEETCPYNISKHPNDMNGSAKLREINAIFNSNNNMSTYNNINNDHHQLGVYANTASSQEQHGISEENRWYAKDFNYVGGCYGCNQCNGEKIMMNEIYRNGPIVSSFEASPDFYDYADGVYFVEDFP
Sequence (Q8IIJ9 600-700): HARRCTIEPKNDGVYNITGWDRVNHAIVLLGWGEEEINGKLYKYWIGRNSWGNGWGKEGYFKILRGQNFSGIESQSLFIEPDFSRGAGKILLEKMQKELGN
experiment: biochemical
Parameters: species or system P. falciparum parasite lysate; continuous fluorogenic assay, time-dependent inactivation of DPAP1 in diluted parasite lysate, Pro-Arg-AMC 20 uM
test.context: read-out: DPAP1 / k inact/K i ·10^−3 (M ^−1·s^−1)
readout.name: kinact/KI (M⁻¹ s⁻¹)
Only the number, expressed in M⁻¹ s⁻¹, is required.

Please review the entries below; each comes with its answer.
* N[C@@H](Cc1ccc2ccccc2c1)C(=O)N[C@H](/C=C/S(=O)(=O)c1ccccc1)CCCCOCc1ccccc1 | 190
* N[C@@H](Cc1c[nH]c2ccccc12)C(=O)N[C@H](/C=C/S(=O)(=O)c1ccccc1)CCc1ccccc1 | 3200
* CCC[C@H](N)C(=O)N[C@H](/C=C/S(=O)(=O)c1ccccc1)CCc1ccccc1 | 3.16e+06
* N[C@H](C(=O)N[C@H](/C=C/S(=O)(=O)c1ccccc1)CCCCOCc1ccccc1)C1Cc2ccccc2C1 | 860
* N[C@@H](Cc1c[nH]c2ccccc12)C(=O)N[C@H](/C=C/S(=O)(=O)c1ccccc1)CCCCOCc1ccccc1 | 5800
* O=C(N[C@H](C=CS(=O)(=O)c1ccccc1)CCc1ccccc1)[C@@H]1CCCN1 | 470000

Here's the next entry for you.
Qu. # query: kinact/KI | item O=C(N[C@H](/C=C/S(=O)(=O)c1ccccc1)CCCCOCc1ccccc1)[C@@H]1CCCCN1 | system: DPAP1 (Plasmodium falciparum, UniProt Q8IIJ9)
Ans. 3.56e+06

----------
tested.system: CatC (bovine) (Bos taurus)
Construct: gene CTSC; native, purified to homogeneity from bovine spleen
Sequence (Q3ZCJ8 25-134): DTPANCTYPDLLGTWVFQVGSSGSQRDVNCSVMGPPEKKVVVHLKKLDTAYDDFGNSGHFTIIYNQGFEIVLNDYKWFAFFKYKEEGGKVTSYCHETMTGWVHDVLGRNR
Sequence (Q3ZCJ8 231-394): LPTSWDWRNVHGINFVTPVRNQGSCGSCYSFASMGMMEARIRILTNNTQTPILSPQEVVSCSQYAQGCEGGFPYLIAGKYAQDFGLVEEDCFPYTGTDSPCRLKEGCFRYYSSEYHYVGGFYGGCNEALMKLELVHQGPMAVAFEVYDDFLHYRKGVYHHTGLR
Sequence (Q3ZCJ8 395-463): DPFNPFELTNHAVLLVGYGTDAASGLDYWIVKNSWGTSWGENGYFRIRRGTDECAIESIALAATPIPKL
experiment: biochemical
Set-up: continuous fluorogenic assay, time-dependent inactivation of 0.2 nM CatC, Gly-Arg-AMC 15 uM
test.context: read-out: CatC / k inact ·10^3
readout.name: kinact (s⁻¹)
The figure you give is taken to be in s⁻¹; do not add the unit.

• N[C@@H](Cc1ccc(O)c([N+](=O)[O-])c1)C(=O)N[C@H](C=CS(=O)(=O)c1ccccc1)CCc1ccccc1 = 0.0032
• N[C@@H](Cc1ccc2ccccc2c1)C(=O)N[C@H](/C=C/S(=O)(=O)c1ccccc1)CCCCOCc1ccccc1 = 0.0024
• N[C@H](C(=O)N[C@H](/C=C/S(=O)(=O)c1ccccc1)CCCCOCc1ccccc1)C1Cc2ccccc2C1 = 0.00148

Qu. Which kinact is listed for O=C(N[C@H](C=CS(=O)(=O)c1ccccc1)CCc1ccccc1)[C@@H]1CCCN1 ?
Ans. 0.00145

Qu. Check O=C(N[C@H](/C=C/S(=O)(=O)c1ccccc1)CCc1ccccc1)[C@@H]1CCCCN1 too.
Ans. 0.00167

Qu. Same thing, different molecule: N[C@H](Cc1c[nH]c2ccccc12)C(=O)N[C@H](/C=C/S(=O)(=O)c1ccccc1)CCCCOCc1ccccc1
Ans. 0.00197

Qu. N[C@@H](Cc1c[nH]c2ccccc12)C(=O)N[C@H](/C=C/S(=O)(=O)c1ccccc1)CCCCOCc1ccccc1 ?
Ans. 0.00174

Qu. Follow-up item: N[C@@H](Cc1ccc(O)c([N+](=O)[O-])c1)C(=O)N[C@H](/C=C/S(=O)(=O)c1ccccc1)CCCCOCc1ccccc1
Ans. 0.0029

Qu. What would you report for N[C@@H](Cc1c[nH]c2ccccc12)C(=O)N[C@H](/C=C/S(=O)(=O)c1ccccc1)CCc1ccccc1 ?
Ans. 0.0022

Qu. Ok, now N[C@H](C(=O)N[C@H](/C=C/S(=O)(=O)c1ccccc1)CCc1ccccc1)C1Cc2ccccc2C1
Ans. 0.0058

Source: paper PMC6851853
